Sourced from ChEMBL document CHEMBL1143473

Target chain: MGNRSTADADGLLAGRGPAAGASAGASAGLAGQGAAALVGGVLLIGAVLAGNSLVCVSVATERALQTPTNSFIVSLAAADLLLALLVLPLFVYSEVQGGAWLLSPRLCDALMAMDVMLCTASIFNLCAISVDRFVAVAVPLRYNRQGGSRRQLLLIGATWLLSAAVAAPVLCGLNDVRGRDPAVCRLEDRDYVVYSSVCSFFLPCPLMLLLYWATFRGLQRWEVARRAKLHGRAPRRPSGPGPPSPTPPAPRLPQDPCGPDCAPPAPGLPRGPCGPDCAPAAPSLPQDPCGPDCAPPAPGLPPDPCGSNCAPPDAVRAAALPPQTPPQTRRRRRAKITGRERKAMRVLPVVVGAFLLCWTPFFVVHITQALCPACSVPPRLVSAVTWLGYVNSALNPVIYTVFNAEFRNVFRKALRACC
pKi: −log10 of the molar value.
reported endpoint: pKi

Please review the following examples before continuing.
INSERT INTO results (smiles_record, data_value) VALUES
  ('COc1ccccc1N1CCN(CCCCNS(=O)(=O)c2ccc(F)cc2)CC1', 8.00),
  ('O=S(=O)(NCCCCN1CCN(c2cccc(Cl)c2Cl)CC1)c1ccc(F)cc1', 7.77);

[a] O=C(NCCCCN1CCN(c2cccc(Cl)c2Cl)CC1)c1ccc(F)nc1
[b] O=C(NCCCCN1CCN(c2cccc(Cl)c2Cl)CC1)c1ccc(F)cc1
Data request: Please choose the item with the lower pKi value from this pair: a and b Choose, then provide that item's label.
Data returned: a
